experiment: Cytotoxicity assay (LTR-luc luciferase reporter); format: cell-based, human; settings: human; Huh-7 LTR-luc cells, luciferase activity; read-out: CC50 (concentration of drug inhibiting cellular growth by 50%)
Documented CC50 across a set of molecules

- molecule: "COc1nc(N)nc2c1ncn2C1OC(COP(=O)(NCc2ccccc2)OCc2ccccc2C)C[C@@]1(C)F (stereo partly shown)"
  CC50: "52.2 µM"
- molecule: "COC(=O)[C@H](C)NP(=O)(OCC1C[C@@](C)(F)C(n2cnc3c(OC)nc(N)nc32)O1)Oc1ccccc1 (stereo partly shown)"
  CC50: "> 100 µM"
- molecule: "COc1nc(N)nc2c1ncn2C1OC(CO)C[C@@]1(C)F (stereo partly shown)"
  CC50: "> 100 µM"
- molecule: "COc1nc(N)nc2c1ncn2C1OC(CO[P@@](=O)(N[C@@H](C)C(=O)OC2CCCC2)Oc2ccccc2)C[C@@]1(C)F (stereo partly shown)"
  CC50: "> 100 µM"

Origin of the recorded values: patent US20140315850A1
